- measuredTarget: LgTrip 3546 (with His tag; SEQ ID NO: 51)
- Sequence (chain, as listed by the source): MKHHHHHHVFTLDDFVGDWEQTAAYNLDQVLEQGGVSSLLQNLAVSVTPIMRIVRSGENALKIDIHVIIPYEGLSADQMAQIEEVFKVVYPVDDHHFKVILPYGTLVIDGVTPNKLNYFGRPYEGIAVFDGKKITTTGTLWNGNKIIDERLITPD
- assayRemarks: luminescence complementation; SmTrip9 Kd
- conditionSummary: modification not given
valueType: pKd
In simple prose, pKd is minus the logarithm base ten of a concentration in moles per litre.

Query: Fill in the blank: the reported pKd of DKLLFTVTIEKWK [758] is ____.
Response: 6.28
